# credit: ChEMBL document CHEMBL3045940

tested on: HeLa; test: Antiproliferative activity against Homo sapiens (human) HeLa cells after 48 hr by MTT assay; format: functional, cell-based
MEASUREMENT NAME: IC50 (µM)
Enter your answer as a number in µM; do not include the unit.

Returns the measured IC50 for the input molecule. Input: COc1cc(/C=C2\CC/C(=C\c3ccc(O)c(OC)c3)C2=O)ccc1O
42

Returns the measured IC50 for the input molecule. Input: O=C1/C(=C/c2ccc(F)cc2)CC/C1=C\c1ccc(F)cc1
39

Returns the measured IC50 for the input molecule. Input: COc1ccc(/C=C2\CC/C(=C\c3ccc(OC)c(OC)c3)C2=O)cc1OC
110
